The reported numbers originate from patent US9371322B2.

target: FKBP52 (Homo sapiens, UniProt Q02790)
Sequence (Q02790 50-138 limits assumed): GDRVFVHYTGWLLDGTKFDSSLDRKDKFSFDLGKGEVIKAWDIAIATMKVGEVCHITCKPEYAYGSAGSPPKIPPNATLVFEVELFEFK
pKi: −log10 of the molar value.
Everything with pKi lower than 5 is 0 (no); everything else, including exactly 5, is 1 (yes).

Decide: is the reported value of pKi for CCN1CC2CCCC(C1=O)N2C(=O)C(=O)c1cc(OC)c(OC)c(OC)c1 (stereo not shown) [Compound 4g, reference compound] equal to or greater than 5?
0 (no)

Could you please find out whether COc1ccc(OCCN2CC3CCCC(C2=O)N3C(=O)C(=O)c2cc(OC)c(OC)c(OC)c2)cc1OC (stereo not shown) [Compound 4a, reference compound] has pKi that meets 5 or exceeds it?
0 (no)

Please tell me: is the compound COc1ccc(OCCN2CCC3CCCC(C2=O)N3S(=O)(=O)c2ccc3ncsc3c2)cc1OC (stereo not shown) at or over 5 in terms of pKi?
1 (yes)

Does COc1ccc(OCCN2CCC3CCCC(C2=O)N3S(=O)(=O)c2cc(Cl)c(O)c(Cl)c2)cc1OC (stereo not shown) have a reported pKi of at least 5?
1 (yes)

Could you please find out whether O=C1NCCC2CCCC1N2S(=O)(=O)c1ccc2[nH]c(=O)sc2c1 (stereo not shown) has pKi that meets 5 or exceeds it?
0 (no)

Does the compound COc1ccc(OCCN2CCC3CCCC(C2=O)N3S(=O)(=O)c2cc(Cl)cc(Cl)c2)cc1OC (stereo not shown) have recorded pKi that is 5 or more?
1 (yes)

Record O=C1C2CCCC(CN1c1ccccc1)N2S(=O)(=O)c1ccc(Cl)cc1 (stereo not shown) ; criterion: pKi no lower than 5. Met?
0 (no)

Is reported pKi greater than or equal to 5 here: O=C1NCC2CCCC1N2S(=O)(=O)c1ccc2[nH]c(=O)sc2c1 (stereo not shown)
0 (no)

Is the recorded value of pKi equal to or greater than 5 for this compound? COc1ccc(OCCOC(=O)C2CCCCN2S(=O)(=O)c2ccc3ncsc3c2)cc1OC (stereo not shown) [Compound 3c, reference compound]
0 (no)

Item CCC(C)(C)C(=O)C(=O)N1C2CCCC1C(=O)N(CCOc1ccc(OC)c(OC)c1)CC2 (stereo not shown) [Compound 5f, reference compound] with pKi of 5 or above?
0 (no)

Hello, I need to know if COc1ccc(OCCN2CCC3CCCC(C2=O)N3S(=O)(=O)c2ccc3[nH]c(=O)sc3c2)cc1OC (stereo not shown) has measured pKi not below 5. Thanks!
1 (yes)

Check the entry COc1ccc(OCCOC(=O)C2CCCCN2S(=O)(=O)c2cc(Cl)cc(Cl)c2)cc1OC (stereo not shown) [Compound 3b, reference compound] : does pKi equal or exceed 5?
0 (no)

Record CCOC(=O)C1CCCCN1S(=O)(=O)c1ccc2[nH]c(=O)sc2c1 (stereo not shown) [Compound 3d, reference compound] ; criterion: pKi no lower than 5. Met?
0 (no)

Can COc1ccc(CCN2CCC3CCCC(C2=O)N3C(=O)C(=O)c2cc(OC)c(OC)c(OC)c2)cc1OC (stereo not shown) [Compound 5h, reference compound] be said to have pKi at or above 5?
0 (no)

Would you say COc1ccc(OCCOC(=O)C2CCCCN2C(=O)C(=O)c2cc(OC)c(OC)c(OC)c2)cc1OC (stereo not shown) [Compound 3a, reference compound] shows pKi at minimum 5?
0 (no)

----------
Target: FKBP51 (Homo sapiens)
Sequence (Q13451 42-130 limits assumed): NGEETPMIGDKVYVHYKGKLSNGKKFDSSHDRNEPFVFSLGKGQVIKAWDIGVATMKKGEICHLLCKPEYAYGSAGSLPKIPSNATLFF
pKi: −log10 of the molar value.
readout-type: pKi

Briefly, pKi measured for CCC(C)(C)C(=O)C(=O)N1C2CCCC1C(=O)N(CCOc1ccc(OC)c(OC)c1)CC2 (stereo not drawn) [Compound 5f, reference compound] : < 4.00

The recorded pKi for O=C1C2CCCC(CN1c1ccccc1)N2S(=O)(=O)c1ccc(Cl)cc1 (stereo not drawn) is < 4.00

Record COc1ccc(CCN2CCC3CCCC(C2=O)N3C(=O)C(=O)c2cc(OC)c(OC)c(OC)c2)cc1OC (stereo not drawn) [Compound 5h, reference compound] , field pKi: < 4.00
